systemTested: Epidermal growth factor receptor (Homo sapiens, UniProt P00533)
Sequence (P00533 whole entry, the tested form may be a part): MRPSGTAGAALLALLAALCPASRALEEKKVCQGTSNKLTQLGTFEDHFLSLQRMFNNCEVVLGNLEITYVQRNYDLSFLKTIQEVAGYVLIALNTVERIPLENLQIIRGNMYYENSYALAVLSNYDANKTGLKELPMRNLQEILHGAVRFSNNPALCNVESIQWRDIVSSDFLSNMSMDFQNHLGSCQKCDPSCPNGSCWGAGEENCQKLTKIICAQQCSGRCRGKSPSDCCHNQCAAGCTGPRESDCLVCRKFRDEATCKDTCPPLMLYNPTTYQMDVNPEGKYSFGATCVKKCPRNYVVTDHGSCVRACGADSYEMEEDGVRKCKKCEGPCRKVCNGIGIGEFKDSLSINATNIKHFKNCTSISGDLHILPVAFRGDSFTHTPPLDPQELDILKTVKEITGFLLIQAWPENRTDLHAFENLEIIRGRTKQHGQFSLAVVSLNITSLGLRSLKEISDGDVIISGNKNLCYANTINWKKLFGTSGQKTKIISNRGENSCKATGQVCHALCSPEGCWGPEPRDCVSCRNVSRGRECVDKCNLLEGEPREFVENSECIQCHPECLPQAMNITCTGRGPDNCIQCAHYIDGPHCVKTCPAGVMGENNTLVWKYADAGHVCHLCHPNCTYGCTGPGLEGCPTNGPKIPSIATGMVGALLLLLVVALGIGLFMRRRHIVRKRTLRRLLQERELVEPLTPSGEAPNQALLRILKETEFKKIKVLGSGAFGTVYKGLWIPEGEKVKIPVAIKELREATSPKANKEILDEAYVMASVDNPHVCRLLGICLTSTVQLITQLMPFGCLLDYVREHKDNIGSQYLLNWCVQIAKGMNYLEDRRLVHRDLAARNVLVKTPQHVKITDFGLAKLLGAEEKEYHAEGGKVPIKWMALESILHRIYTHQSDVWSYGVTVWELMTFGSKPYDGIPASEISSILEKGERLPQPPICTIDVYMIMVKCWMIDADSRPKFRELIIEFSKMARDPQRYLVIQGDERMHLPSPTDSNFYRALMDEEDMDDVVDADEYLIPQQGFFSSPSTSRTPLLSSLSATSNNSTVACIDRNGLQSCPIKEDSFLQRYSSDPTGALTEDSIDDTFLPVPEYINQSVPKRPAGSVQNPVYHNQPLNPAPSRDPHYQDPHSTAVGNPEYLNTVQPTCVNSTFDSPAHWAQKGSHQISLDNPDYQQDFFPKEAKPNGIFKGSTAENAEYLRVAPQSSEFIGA
assayOverview: Inhibition of recombinant human N-terminal GST-tagged EGFR kinase domain (696 to end residues) expressed in baculovirus infected Sf21 insect cells using STK as substrate by HTRF assay
pIC50: −log10 of the molar value.
Please mark met if the recorded pIC50 is equal to or greater than 6, and not met if it falls below.

Does the compound C=CC(=O)N1CCC(Oc2nc(Nc3ccc(N4CCOCC4)cc3)nc3[nH]cc(-c4ccnc(NC)c4)c23)CC1 have recorded pIC50 that is 6 or more? met

Does the compound C=CC(=O)N1CCC[C@@H]1COc1nc(Nc2ccc(N3CCN(C(C)=O)CC3)cc2)nc2[nH]cc(-c3cncc(NC)n3)c12 have recorded pIC50 that is 6 or more? met

Does the compound C=CC(=O)N1CCC[C@H]1COc1nc(Nc2ccc(N3CCN(C(C)=O)CC3)cc2)nc2[nH]cc(-c3cncc(NC)n3)c12 have recorded pIC50 that is 6 or more? not met

Moving on to the next compound.
Does the compound C=CC(=O)N1CCC[C@@H](Oc2nc(Nc3ccc(N4CCN(C(C)=O)CC4)cc3)nc3[nH]cc(-c4cncc(NC)n4)c23)C1 have recorded pIC50 that is 6 or more? met
